- TESTED SYSTEM: Cry2 PHR (L348F)-p65AD-NLSx2 fusion construct as released from the TetR (I194T, 1-206)-CIB1 (-NLS)-T2A-Cry2 PHR (L348F)-p65AD-NLSx2 fusion construct
- Sequence (Q96524 other isoform, or with tags, fused parts or gaps L348F I194T L348F L348F I194T L348F): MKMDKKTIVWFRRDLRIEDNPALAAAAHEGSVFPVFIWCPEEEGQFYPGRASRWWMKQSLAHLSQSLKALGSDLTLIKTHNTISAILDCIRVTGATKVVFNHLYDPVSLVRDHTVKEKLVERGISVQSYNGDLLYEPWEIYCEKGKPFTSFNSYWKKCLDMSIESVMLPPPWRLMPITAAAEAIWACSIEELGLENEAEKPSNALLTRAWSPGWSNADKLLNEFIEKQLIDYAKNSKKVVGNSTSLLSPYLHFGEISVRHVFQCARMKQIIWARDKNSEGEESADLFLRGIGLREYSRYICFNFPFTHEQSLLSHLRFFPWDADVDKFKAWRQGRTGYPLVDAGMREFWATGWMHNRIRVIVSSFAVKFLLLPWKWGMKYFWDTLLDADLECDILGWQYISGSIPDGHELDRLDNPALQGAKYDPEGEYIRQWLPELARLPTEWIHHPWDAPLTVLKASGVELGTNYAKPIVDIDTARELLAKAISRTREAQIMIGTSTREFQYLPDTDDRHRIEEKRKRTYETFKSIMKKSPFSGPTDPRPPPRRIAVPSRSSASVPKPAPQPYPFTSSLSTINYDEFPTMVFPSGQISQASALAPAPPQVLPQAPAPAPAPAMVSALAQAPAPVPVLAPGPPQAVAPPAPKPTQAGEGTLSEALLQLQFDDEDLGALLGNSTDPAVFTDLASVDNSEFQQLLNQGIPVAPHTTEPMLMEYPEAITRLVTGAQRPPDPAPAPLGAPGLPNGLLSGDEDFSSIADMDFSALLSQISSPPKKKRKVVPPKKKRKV
- METHOD DESCRIPTION: cell-based or functional assay
Reported Light/Dark, Dox 75 ng/mL is given for each of the following binders.
Respond using a number only.

BINDER	Light/Dark, Dox 75 ng/mL
rTetR (I194T, rtTA mutation, 1-206)-CIB1 (-NLS) from the T2A construct (protein, part only; not given: Leftover T2A residues, part only) chain, part: MARLDKSKVINSALELLNEVGIEGLTTRKLAQKLGVEQPTLYWHVKNKRALLDALAIEMLDRHHTHFCPLKGESWQDFLRNNAKSFRCALLSHRNGAKVHSDTRPTEKQYETLENQLAFLCQQGFSLENALYALSAVGHFTLGCVLEDQEHQVAKEERETPTTDSMPPLLRQAIELFDHQGAEPAFLFGLELITCGLEKQLKCESGSPKKKHMEFNGAIGGDLLLNFPDMSVLERQRAHLKYLNPTFDSPLAGFFADSSMITGGEMDSYLSTAGLNLPMMYGETTVEGDSRLSISPETTLGTGNFKAAKFDTETKDCNEAAKKMTMNRDDLVEEGEEEKSKITEQNNGSTKSIKKMKHKAKKEENNFSNDSSKVTKELEKTDYI	3.4

Here is the next item to consider.
Problem: Param item = TetR (I194T, 1-206)-CIB1 (-NLS) fusion construct as released from the TetR (I194T, 1-206)-CIB1 (-NLS)-T2A-Cry2 PHR (L348F)-p65AD-NLSx2 fusion construct (protein, part only, residual T2A residues at C-terminus) MARLDKSKVINSALELLNEVGIEGLTTRKLAQKLGVEQPTLYWHVKNKRALLDALAIEMLDRHHTHFCPLEGESWQDFLRNNAKSFRCALLSHRDGAKVHLGTRPTEKQYETLENQLAFLCQQGFSLENALYALSAVGHFTLGCVLEDQEHQVAKEERETPTTDSMPPLLRQAIELFDHQGAEPAFLFGLELITCGLEKQLKCESGSPKKKHMEFNGAIGGDLLLNFPDMSVLERQRAHLKYLNPTFDSPLAGFFADSSMITGGEMDSYLSTAGLNLPMMYGETTVEGDSRLSISPETTLGTGNFKAAKFDTETKDCNEAAKKMTMNRDDLVEEGEEEKSKITEQNNGSTKSIKKMKHKAKKEENNFSNDSSKVTKELEKTDYI ; retrieve measured Light/Dark, Dox 75 ng/mL.
Result: 0.9
